Experiment: Rat pharmacokinetic studies, intramuscular administration
Assay type: in vivo, male Sprague Dawley Rats
Conditions: male, Sprague Dawley, rat, plasma, im; 123 mg/kg, Cottonseed oil + 1% Benzyl Alcohol; read-out: Half-life t1/2 (hour) prodrug (converted)
measured endpoint: half-life (h)
Numbers only, in h.

Returns the measured half-life for the input compound. Input: C=C1CC[C@@]2(O)C3Cc4ccc(OCOC(=O)OCCCCCCCCCCCC)c5c4[C@@]2(CCN3CC2CC2)[C@H]1O5 [Compound 24] 717

###

Assay: Dog pharmacokinetic studies, deep intramuscular administration
Assay type: in vivo, Beagle dogs
Settings: Beagle, dog, plasma, im, 96 mg/kg, IM 96 mg/kg, Sesame oil + 1% Benzyl Alcohol; read-out: AUC0-inf (ng · h/mL) prodrug
measured endpoint: AUC(0-inf) (ng·h/mL)
Numbers only, in ng·h/mL.

1) C=C1CC[C@@]2(O)C3Cc4ccc(OC(=O)OCCCCCCCCCCCC)c5c4[C@@]2(CCN3CC2CC2)[C@H]1O5 [Compound 6]: 1290

Note: attention shifts to another entry.
Returns the measured AUC(0-inf) for the input compound. Input: C=C1CC[C@@]2(O)C3Cc4ccc(OC(=O)CCCCCCC/C=C/CCCCCCCC)c5c4[C@@]2(CCN3CC2CC2)[C@H]1O5 [Compound 15] 1350
